Measured Ki of individual entries
Biological target: Transient receptor potential cation channel subfamily V member 4 (Homo sapiens, UniProt Q9HBA0)
Sequence (Q9HBA0 whole entry): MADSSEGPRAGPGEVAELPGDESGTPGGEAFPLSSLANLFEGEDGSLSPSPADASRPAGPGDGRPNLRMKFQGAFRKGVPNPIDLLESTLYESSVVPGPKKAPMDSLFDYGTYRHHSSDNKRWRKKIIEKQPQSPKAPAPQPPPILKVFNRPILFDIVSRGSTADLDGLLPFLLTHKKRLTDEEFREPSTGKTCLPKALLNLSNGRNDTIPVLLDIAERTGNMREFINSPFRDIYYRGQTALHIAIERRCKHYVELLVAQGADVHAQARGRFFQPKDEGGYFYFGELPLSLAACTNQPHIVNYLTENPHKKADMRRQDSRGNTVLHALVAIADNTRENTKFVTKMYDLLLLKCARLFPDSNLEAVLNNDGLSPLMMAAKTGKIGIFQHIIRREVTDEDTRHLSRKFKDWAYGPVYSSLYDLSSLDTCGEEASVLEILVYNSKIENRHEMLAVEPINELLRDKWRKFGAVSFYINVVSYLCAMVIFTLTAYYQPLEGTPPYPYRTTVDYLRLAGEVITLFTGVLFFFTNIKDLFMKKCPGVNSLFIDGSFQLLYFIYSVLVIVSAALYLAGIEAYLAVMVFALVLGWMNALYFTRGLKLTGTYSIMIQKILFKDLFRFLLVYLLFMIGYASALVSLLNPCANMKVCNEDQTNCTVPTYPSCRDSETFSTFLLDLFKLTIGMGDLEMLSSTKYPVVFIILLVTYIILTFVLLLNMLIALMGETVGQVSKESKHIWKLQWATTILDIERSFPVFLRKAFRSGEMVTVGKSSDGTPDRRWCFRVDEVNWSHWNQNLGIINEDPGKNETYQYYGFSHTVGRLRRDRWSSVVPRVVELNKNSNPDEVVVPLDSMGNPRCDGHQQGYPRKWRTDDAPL
Test: Inhibition Assay: Test Example 1: (1) The TRPV4 inhibitory activity was measured using CHO-K1 cells stably expressing human TRPV4 (hTRPV4/CHO cells). (2) In the day before the experimental day, frozen cell were thawed and washed with the culture medium (MEM-α, 10% FBS, 2 mmol/L GlutaMax, 50 unit Penicillin, 50 μg/mL Streptomycin). Then cells were suspended in the culture medium. (3) The 384-well plates which hTRPV4/CHO cells were seeded at densities of 4000 cells/well in the culture medium and cultured in a CO2 incubator in the presence of 5% CO2 at 37° C. for overnight was used as assay plates. (4) The assay plate was washed with assay buffer (Hanks, 20 mmol/L HEPES, 2.5 mmol/L probenecid, pH7.4), and the buffer were remained at 20 μL/well. (5) 10 μl of dye loading buffer (9 μmol/L Fluo 4-AM, 0.09% Pluronic F-127/assay buffer) was added to each well, then the assay plate was incubated in a CO2 incubator in the presence of 5% CO2 at 37° C. for one hour. (final 3 μmol/L Fluo4-AM). (6) The assay plate was washed with the assay buffer, and the buffers were remained at 20 μL/well. Then the assay plate was incubated for 10 min at room temperature. (7) Diluted compound solution was dispensed to each well in the compound plate, and mixed with built-in Pipette and Mixer of the Fluorescence analysis system FLIPR TETRA (Molecular devices). (8) After incubation for 5 min, 20 μL of 4α-PDD solution were applied to each well of assay plate and mixed with the FLIPR TETRA. (final 1 Î¼mol/L 4α-PDD). (9) The fluorescent intensity was measured with FLIPR TETRA system for 10 min from the point of time addition the compound solution, at Ex 470-495 nm, Em 515-575 nm wavelength.
Quick note: give the figure in nM, leave out the unit.

Some compounds with recorded Ki:
structure=Cc1c(S(=O)(=O)NCc2cccc(C(F)(F)F)c2)cc(C(C)(C)C)n1CCCN1CCNCC1 observed_property=Ki recorded_measurement=3100
structure=Cc1c(C(=O)Nc2cccc(C(F)(F)F)c2)nc(-c2ccccc2)n1CCCN1CCOCC1 observed_property=Ki recorded_measurement=320

Proceed to the following item.
response.value for CNCCCn1c(C(C)(C)C)cc(S(=O)(=O)NCc2cccc(C(F)(F)F)c2)c1C (field: Ki) = 2400

* * *

Target: Transient receptor potential cation channel subfamily V member 4 (Homo sapiens, UniProt Q9HBA0)
Assay: Inhibition Assay: Test Example 1: (1) The TRPV4 inhibitory activity was measured using CHO-K1 cells stably expressing human TRPV4 (hTRPV4/CHO cells). (2) In the day before the experimental day, frozen cell were thawed and washed with the culture medium (MEM-α, 10% FBS, 2 mmol/L GlutaMax, 50 unit Penicillin, 50 μg/mL Streptomycin). Then cells were suspended in the culture medium. (3) The 384-well plates which hTRPV4/CHO cells were seeded at densities of 4000 cells/well in the culture medium and cultured in a CO2 incubator in the presence of 5% CO2 at 37° C. for overnight was used as assay plates. (4) The assay plate was washed with assay buffer (Hanks, 20 mmol/L HEPES, 2.5 mmol/L probenecid, pH7.4), and the buffer were remained at 20 μL/well. (5) 10 μl of dye loading buffer (9 μmol/L Fluo 4-AM, 0.09% Pluronic F-127/assay buffer) was added to each well, then the assay plate was incubated in a CO2 incubator in the presence of 5% CO2 at 37° C. for one hour. (final 3 μmol/L Fluo4-AM). (6) The assay plate was washed with the assay buffer, and the buffers were remained at 20 μL/well. Then the assay plate was incubated for 10 min at room temperature. (7) Diluted compound solution was dispensed to each well in the compound plate, and mixed with built-in Pipette and Mixer of the Fluorescence analysis system FLIPR TETRA (Molecular devices). (8) After incubation for 5 min, 20 μL of 4α-PDD solution were applied to each well of assay plate and mixed with the FLIPR TETRA. (final 1 Î¼mol/L 4α-PDD). (9) The fluorescent intensity was measured with FLIPR TETRA system for 10 min from the point of time addition the compound solution, at Ex 470-495 nm, Em 515-575 nm wavelength.
OBSERVED_PROPERTY: IC50 (µM)
// return numeric value only (unit: µM, not printed)

Solved entries (count: 2):
structure=CNCCCn1c(C(C)(C)C)cc(S(=O)(=O)NCc2cccc(C(F)(F)F)c2)c1C observed_property=IC50 reading_unit=µM recorded_measurement=7
structure=Cc1c(S(=O)(=O)NCc2cccc(C(F)(F)F)c2)cc(C(C)(C)C)n1CCCN1CCNCC1 observed_property=IC50 reading_unit=µM recorded_measurement=8.9

Now look at this one.
IC50 measured on Cc1c(C(=O)Nc2cccc(C(F)(F)F)c2)nc(-c2ccccc2)n1CCCN1CCOCC1 = 0.71

Values from ChEMBL document CHEMBL3886713
